Attribution: ChEMBL document CHEMBL3525925

System: Liver
Experiment: Retention time in human liver S9 fraction treated with 10 uM 20(S)-ginsenoside Rh2 by MS2 spectra
Format: ADME, subcellular
measure: Retention_time (min)

(I) C/C(=C\CC[C@](C)(O)[C@H]1CC[C@]2(C)[C@@H]1[C@H](O)C[C@@H]1[C@@]3(C)CC[C@H](O[C@@H]4O[C@H](CO)[C@@H](O)[C@H](O)[C@H]4O)C(C)(C)[C@@H]3CC[C@]12C)C(=O)O
(II) CC1(C)O[C@H]1CC[C@](C)(O)[C@H]1CC[C@]2(C)[C@@H]1[C@H](O)C[C@@H]1[C@@]3(C)CC[C@H](O[C@@H]4O[C@H](CO)[C@@H](O)[C@H](O)[C@H]4O)C(C)(C)[C@@H]3CC[C@]12C
Q: Could you kindly indicate whether I or II has the higher Retention_time value? Refer to your chosen entry by its label in the reply.
A: II
(II: 20 min, I: 14 min)

====

Assay: Drug excretion in rat bile at 50 mg/kg, po
Assay type: ADME, organism-based
Set-up: dose 50 mg/kg, route oral
Details: read-out: Drug excretion
measure: dose excreted

Q: Suppose we examine the molecule CC(C)=CCC[C@](C)(O)[C@H]1CC[C@]2(C)[C@@H]1[C@H](O)C[C@@H]1[C@@]3(C)CC[C@H](O[C@@H]4O[C@H](CO)[C@@H](O)[C@H](O)[C@H]4O)C(C)(C)[C@@H]3CC[C@]12C [GINSENOSIDE RH2] ; what dose excreted value has been reported?
A: < 10%

====

Assay: Oral bioavailability in Wistar rat at 25 mg/kg
Format: ADME, organism-based
Settings: in vivo
measure: bioavailability (%)
Give the number; % is assumed, so skip it.

Q: Looking for the measured bioavailability of CC(C)=CCC[C@](C)(O)[C@H]1CC[C@]2(C)[C@@H]1[C@H](O)C[C@@H]1[C@@]3(C)CC[C@H](O[C@@H]4O[C@H](CO)[C@@H](O)[C@H](O)[C@H]4O)C(C)(C)[C@@H]3CC[C@]12C [GINSENOSIDE RH2] , can you help?
A: 28

====

Test system: Liver microsome
Test: Drug level in Sprague-Dawley rat liver microsomes treated with 10 uM 20(S)-ginsenoside Rh2 for 60 mins by MS2 spectra
Format: ADME
Settings: 1 h
measure: Drug metabolism

CC(C)(O)[C@H]1CC[C@@](C)([C@H]2CC[C@]3(C)[C@@H]2[C@H](O)C[C@@H]2[C@@]4(C)CC[C@H](O[C@@H]5O[C@H](CO)[C@@H](O)[C@H](O)[C@H]5O)C(C)(C)[C@@H]4CC[C@]23C)O1; metabolite_detected
CC1(C)[C@@H](O[C@@H]2O[C@H](CO)[C@@H](O)[C@H](O)[C@H]2O)CC[C@]2(C)[C@H]3C[C@@H](O)[C@@H]4[C@@H]([C@@](C)(O)CC[C@@H]5O[C@@]5(C)CO)CC[C@@]4(C)[C@]3(C)CC[C@@H]12; metabolite_detected

====

Test system: Liver
Assay: Drug level in CD-1 mouse liver microsomes treated with 10 uM 20(S)-ginsenoside Rh2 for 60 mins by MS2 spectra
Type: ADME
Conditions: 1 h
measure: Drug metabolism

C/C(=C\CC[C@](C)(O)[C@H]1CC[C@]2(C)[C@@H]1[C@H](O)C[C@@H]1[C@@]3(C)CC[C@H](O[C@@H]4O[C@H](CO)[C@@H](O)[C@H](O)[C@H]4O)C(C)(C)[C@@H]3CC[C@]12C)CO; metabolite_detected
CC1(C)[C@@H](O[C@@H]2O[C@H](CO)[C@@H](O)[C@H](O)[C@H]2O)CC[C@]2(C)[C@H]3C[C@@H](O)[C@@H]4[C@@H]([C@@](C)(O)CCC=C(CO)CO)CC[C@@]4(C)[C@]3(C)CC[C@@H]12; metabolite_detected
C/C(=C/CC[C@](C)(O)[C@H]1CC[C@]2(C)[C@@H]1[C@H](O)C[C@@H]1[C@@]3(C)CC[C@H](O[C@@H]4O[C@H](CO)[C@@H](O)[C@H](O)[C@H]4O)C(C)(C)[C@@H]3CC[C@]12C)CO; metabolite_detected
